The reported measurements were obtained from patent US20250011299A1.

# TESTED ON: human ALK5 (Homo sapiens, UniProt P36897)
# Construct: human ALK5 (recombinant TGF β1 N-term GST-tagged, 80-end); GST (N)
# PROTOCOL DETAILS: ADP-GLO Kinases assay of ALK5 enzymatic activity
# RUN PARAMETERS: purified recombinant human ALK5, TGFβ1 peptide substrate, pIC50 converted to pKi by Cheng-Prusoff, high ATP protocol (15 μM) for very potent compounds, 25° C.
pKi: −log10 of the molar value.
MEASURED METRIC: pKi

Answered examples (4):
COMPOUND	pKi
CN1CCN(CCC(=O)Nc2cc(Nc3cc(-c4cc(Cl)ccc4F)nnc3OCc3cccc(O)c3)ccn2)CC1 [Example 81]	≥ 10.00
CN1CC2(C1)CN(CC(=O)Nc1cc(Nc3cc(-c4cc(Cl)ccc4F)nnc3SCCO)ccn1)C2 [Example 24]	≥ 10.00
COC(=O)c1cc2c(Nc3cc(-c4cc(Cl)ccc4F)nnc3OCCC[N+](C)(C)C)ccnc2[nH]1 [Example 11]	8.50 to 9.40
COCC1(CN(C)c2nnc(-c3cc(Cl)ccc3F)cc2Nc2ccnc(NC(=O)CCN3CCN(C)CC3)c2)CCOC1=O (racemic) [Example 200]	≥ 10.00

The measured pKi associated with CSc1nnc(-c2cc(Cl)ccc2F)cc1Nc1ccnc(NC(=O)CCN2CCNCC2)c1 [Example 62] reads ≥ 10.00

The measured pKi associated with CN1CCN(CCC(=O)Nc2cc(Nc3cc(-c4cc(Cl)ccc4F)nnc3S)ccn2)CC1 [Example 179] reads 9.50 to 9.90

The measured pKi associated with CN1CCCN(CC(=O)Nc2cc(Nc3cc(-c4cc(Cl)ccc4F)nnc3SCCO)ccn2)CC1 [Example 27] reads ≥ 10.00

---

# TESTED ON: human ALK5 (Homo sapiens)
# Construct: human ALK5 (recombinant TGF β1 N-term GST-tagged, 80-end); GST (N)
# Sequence (P36897 80-503 limits assumed): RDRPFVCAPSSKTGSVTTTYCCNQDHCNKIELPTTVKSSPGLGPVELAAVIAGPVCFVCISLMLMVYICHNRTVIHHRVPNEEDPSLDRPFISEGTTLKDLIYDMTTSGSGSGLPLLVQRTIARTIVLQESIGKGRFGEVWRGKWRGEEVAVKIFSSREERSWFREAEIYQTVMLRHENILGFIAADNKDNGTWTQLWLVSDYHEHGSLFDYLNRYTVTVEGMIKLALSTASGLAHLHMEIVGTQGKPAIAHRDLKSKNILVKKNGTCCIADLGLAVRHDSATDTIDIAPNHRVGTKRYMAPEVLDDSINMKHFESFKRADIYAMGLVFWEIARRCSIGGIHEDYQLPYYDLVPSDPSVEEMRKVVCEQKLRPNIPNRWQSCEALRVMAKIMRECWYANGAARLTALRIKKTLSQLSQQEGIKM
# PROTOCOL DETAILS: ADP-GLO Kinases assay of ALK5 enzymatic activity
# RUN PARAMETERS: purified recombinant human ALK5, TGFβ1 peptide substrate, pIC50 converted to pKi by Cheng-Prusoff, high ATP protocol (15 μM) for very potent compounds, 25° C.
pKi: −log10 of the molar value.
MEASURED METRIC: pKi

COMPOUND	TESTED ON	pKi
CN1CCN(CCOc2nnc(-c3cc(Cl)ccc3F)cc2Nc2ccnc(NC(=O)C3CC3)c2)CC1	human ALK5 (Homo sapiens)	≥ 10.00
CN1CCN(CCOc2nnc(-c3cc(Cl)ccc3F)cc2Nc2ccnc(N)c2)CC1	human ALK5 (Homo sapiens)	8.50 to 9.40
O=C(Nc1cc(Nc2cc(-c3cc(Cl)ccc3F)nnc2SCCO)ccn1)[C@H]1C[C@@H](N2CCN(C3CC3)CC2)C1	human ALK5 (Homo sapiens)	≥ 10.00
CN1CCN(CCOc2ccc3c(Nc4cc(-c5cc(Cl)ccc5F)nnc4OCC(F)(F)F)ccnc3c2)CC1	human ALK5 (Homo sapiens)	≥ 10.00

The measured pKi associated with `CS(=O)(=O)CCCOc1nnc(-c2cc(Cl)ccc2F)cc1Nc1ccnc(N)c1` reads 8.50 to 9.40

The measured pKi associated with `CN1CCN(CC23CC(C(=O)Nc4cc(Nc5cc(-c6cc(Cl)ccc6F)nnc5SCCO)ccn4)(C2)C3)CC1` reads ≥ 10.00

The measured pKi associated with CN1CCN([C@@H]2CC[C@H](C(=O)Nc3cc(Nc4cc(-c5cc(Cl)ccc5F)nnc4SCCO)ccn3)C2)CC1 (single isomer, unassigned; enantiomer 1) reads ≥ 10.00
